Source: patent US9120812B2

TGT: PI3Kα (p110α/p85α) (Homo sapiens (Human), UniProt P42336)
Sequence (P42336 whole entry): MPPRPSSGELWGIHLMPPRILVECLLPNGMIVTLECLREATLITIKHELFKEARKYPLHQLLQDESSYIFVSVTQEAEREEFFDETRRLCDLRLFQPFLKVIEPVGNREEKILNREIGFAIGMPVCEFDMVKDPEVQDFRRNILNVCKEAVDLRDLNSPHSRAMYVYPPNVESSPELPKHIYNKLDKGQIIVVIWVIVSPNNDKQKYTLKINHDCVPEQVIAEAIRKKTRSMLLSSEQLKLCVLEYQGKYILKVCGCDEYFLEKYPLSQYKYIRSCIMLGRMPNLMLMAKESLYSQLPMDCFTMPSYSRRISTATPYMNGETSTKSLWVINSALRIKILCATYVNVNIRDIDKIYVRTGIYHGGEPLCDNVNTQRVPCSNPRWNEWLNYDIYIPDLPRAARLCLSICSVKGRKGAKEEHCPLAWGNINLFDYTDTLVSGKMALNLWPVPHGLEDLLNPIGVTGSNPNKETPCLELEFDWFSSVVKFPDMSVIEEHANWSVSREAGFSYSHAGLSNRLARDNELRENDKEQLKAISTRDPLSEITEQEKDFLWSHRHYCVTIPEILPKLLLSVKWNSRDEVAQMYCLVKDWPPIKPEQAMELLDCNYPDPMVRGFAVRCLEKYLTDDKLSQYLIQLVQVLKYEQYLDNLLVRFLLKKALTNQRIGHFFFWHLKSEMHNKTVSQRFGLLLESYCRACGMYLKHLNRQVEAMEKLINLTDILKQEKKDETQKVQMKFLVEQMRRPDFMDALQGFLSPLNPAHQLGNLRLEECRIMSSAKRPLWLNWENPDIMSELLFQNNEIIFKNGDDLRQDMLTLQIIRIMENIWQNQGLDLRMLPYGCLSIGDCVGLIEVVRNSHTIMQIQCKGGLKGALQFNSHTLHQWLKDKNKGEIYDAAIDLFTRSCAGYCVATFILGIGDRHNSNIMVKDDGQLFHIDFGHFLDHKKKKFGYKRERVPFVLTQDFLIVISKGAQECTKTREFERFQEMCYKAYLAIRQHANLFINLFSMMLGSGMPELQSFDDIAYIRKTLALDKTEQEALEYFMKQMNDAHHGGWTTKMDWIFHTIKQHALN
Sequence (P27986 whole entry partner): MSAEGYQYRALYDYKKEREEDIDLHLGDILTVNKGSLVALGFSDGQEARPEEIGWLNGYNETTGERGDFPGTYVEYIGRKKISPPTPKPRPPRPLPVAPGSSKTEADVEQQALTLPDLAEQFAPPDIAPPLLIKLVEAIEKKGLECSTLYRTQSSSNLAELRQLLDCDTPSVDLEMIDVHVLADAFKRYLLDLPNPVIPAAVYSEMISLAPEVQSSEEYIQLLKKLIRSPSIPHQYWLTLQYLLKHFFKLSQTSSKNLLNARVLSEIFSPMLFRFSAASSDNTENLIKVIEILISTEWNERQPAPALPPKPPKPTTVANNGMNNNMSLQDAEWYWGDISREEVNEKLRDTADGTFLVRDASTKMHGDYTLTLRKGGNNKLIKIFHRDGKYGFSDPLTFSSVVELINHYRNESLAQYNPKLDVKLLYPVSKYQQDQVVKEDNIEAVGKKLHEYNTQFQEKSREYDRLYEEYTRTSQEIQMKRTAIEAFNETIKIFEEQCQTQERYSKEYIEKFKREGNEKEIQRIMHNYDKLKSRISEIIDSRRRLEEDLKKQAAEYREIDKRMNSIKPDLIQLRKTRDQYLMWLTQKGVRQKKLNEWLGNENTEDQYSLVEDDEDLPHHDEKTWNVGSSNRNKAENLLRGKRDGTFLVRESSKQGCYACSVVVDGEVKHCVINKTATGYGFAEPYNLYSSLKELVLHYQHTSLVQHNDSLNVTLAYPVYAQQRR
ASSAY EXPLANATION: PI3Kα enzymatic test by measuring the consumption of ATP
Type: biochemical
MEASURE: PI3Ka IC50 (µM)

SMILES REPR: CCN1CC(C)(C)Oc2nc(N3CC4CCC(C3)O4)nc(-c3ccc(NC(=O)Nc4cccc(OC(F)F)c4)cc3)c2C1=O
MEASURE: PI3Ka IC50
REL: =
MEASURED: 7.57
//
SMILES REPR: CCN1CC(C)(C)Oc2nc(N3CCOC[C@@H]3C)nc(-c3ccc(NC(=O)Nc4ccc(C(=O)N(C)CCN(C)C)cc4)cc3)c2C1=O
MEASURE: PI3Ka IC50
REL: =
MEASURED: 0.037
//
SMILES REPR: CCNC(=O)Nc1ccc(-c2nc(N3CC4CCC(C3)O4)nc3c2C(=O)N(CCOC)CC(C)(C)O3)cc1
MEASURE: PI3Ka IC50
REL: >
MEASURED: 10
//
SMILES REPR: CCN1CC(C)(C)Oc2nc(N3CCOC[C@@H]3C)nc(-c3ccc(NC(=O)Nc4nnc(C)o4)c(F)c3)c2C1=O
MEASURE: PI3Ka IC50
REL: =
MEASURED: 0.824
//
SMILES REPR: CCN1CC(C)(C)Oc2nc(N3CC4CCC(C3)O4)nc(-c3ccc(NC(=O)Nc4ccc(OC)nn4)cc3)c2C1=O
MEASURE: PI3Ka IC50
REL: >
MEASURED: 10
//
SMILES REPR: CCN1CC(C)(C)Oc2nc(N3C4CCC3COC4)nc(-c3ccc(NC(=O)Nc4ccc(N5C[C@@H]6C[C@H]5CO6)nc4)c(F)c3)c2C1=O
MEASURE: PI3Ka IC50
REL: >
MEASURED: 10
